# % Ctrl, RET(V804M) per record follows
Biological target: kinases (Homo sapiens, UniProt P07949, V804M)
Construct: purchased Eurofins/DiscoveRx; host or cells: E. coli BL21-derived host (T7 phage display) for most kinases; HEK-293 for the rest
Sequence (P07949 29-1114 V804M): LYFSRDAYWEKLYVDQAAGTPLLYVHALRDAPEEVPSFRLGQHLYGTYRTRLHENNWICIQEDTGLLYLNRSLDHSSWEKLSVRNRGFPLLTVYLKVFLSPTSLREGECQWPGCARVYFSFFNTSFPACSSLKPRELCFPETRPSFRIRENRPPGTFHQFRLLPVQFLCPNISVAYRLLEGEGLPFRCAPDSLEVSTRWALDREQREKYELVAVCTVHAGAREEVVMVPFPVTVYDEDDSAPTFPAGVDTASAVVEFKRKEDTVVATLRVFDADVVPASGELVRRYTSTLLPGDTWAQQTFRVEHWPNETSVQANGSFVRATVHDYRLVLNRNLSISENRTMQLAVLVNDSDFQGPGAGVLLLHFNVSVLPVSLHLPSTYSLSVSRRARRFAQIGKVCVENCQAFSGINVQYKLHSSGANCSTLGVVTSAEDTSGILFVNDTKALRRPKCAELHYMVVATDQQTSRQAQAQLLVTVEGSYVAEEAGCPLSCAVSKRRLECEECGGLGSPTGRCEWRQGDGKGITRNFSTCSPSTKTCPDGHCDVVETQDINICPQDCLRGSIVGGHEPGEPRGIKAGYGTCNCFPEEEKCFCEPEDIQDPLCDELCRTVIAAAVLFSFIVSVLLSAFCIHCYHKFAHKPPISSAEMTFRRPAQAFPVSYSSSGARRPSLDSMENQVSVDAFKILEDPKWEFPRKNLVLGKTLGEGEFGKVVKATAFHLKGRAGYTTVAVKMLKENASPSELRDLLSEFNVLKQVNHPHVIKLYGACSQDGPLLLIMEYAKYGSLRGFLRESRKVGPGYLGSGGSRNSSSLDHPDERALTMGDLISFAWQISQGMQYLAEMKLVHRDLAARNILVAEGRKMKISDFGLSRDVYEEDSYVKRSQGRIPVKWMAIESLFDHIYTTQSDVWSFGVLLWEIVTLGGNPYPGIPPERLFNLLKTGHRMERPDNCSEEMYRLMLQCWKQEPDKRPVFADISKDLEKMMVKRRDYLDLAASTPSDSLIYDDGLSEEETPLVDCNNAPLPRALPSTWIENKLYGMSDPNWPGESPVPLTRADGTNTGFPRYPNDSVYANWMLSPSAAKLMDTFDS
Assay: KINOMEscan kinase binding assay (Eurofins/DiscoveRx), % Ctrl
Settings: target RET(V804M); 1 μM
Experimental: Kinase binding assays were performed at Eurofins/DiscoveRx using the general KINOMEscan Protocol (Fabian, M. A. et al., “A small molecule-kinase interaction map for clinical kinase inhibitors,” Nat. Biotechnol. 2005, 23(3):329-36). For most assays, kinase-tagged T7 phage strains were prepared in an E. coli host derived from the BL21 strain. […] The kinase concentration in the eluates was measured by qPCR. […]
Your answer should be a plain number; it is taken to be in % Ctrl.

Known results for compounds:
1) Cc1cc2c([nH]1)/C=C1\C(=O)Nc3cc(Cl)c(cc31)OCCO[C@@H](C(=O)N1CCN(C)CC1)CN(C)C2=O [Ex. 138] = 81
2) CN1CCOCCOc2cc3c(cc2Cl)NC(=O)/C3=C\c2[nH]ccc2C1=O [Ex. 143] = 31
3) Cc1cc2c([nH]1)/C=C1\C(=O)Nc3ccc(cc31)-c1c(noc1C)CNCCN(C)C2=O [Ex. 139] = 23

Lookup: Please report the recorded % Ctrl, RET(V804M) for Cc1cc2c([nH]1)/C=C1\C(=O)Nc3ccc(cc31)-c1c(C)nn(C)c1COCCN(C)C2=O [Ex. 146] .
Found: 12
